Biological target: T1, human transferrin receptor 1 (human, UniProt P02786 89-760, limits assumed)
T1 construct: also called hTfR1; huTfR1
T1 sequence (P02786 89-760 limits assumed): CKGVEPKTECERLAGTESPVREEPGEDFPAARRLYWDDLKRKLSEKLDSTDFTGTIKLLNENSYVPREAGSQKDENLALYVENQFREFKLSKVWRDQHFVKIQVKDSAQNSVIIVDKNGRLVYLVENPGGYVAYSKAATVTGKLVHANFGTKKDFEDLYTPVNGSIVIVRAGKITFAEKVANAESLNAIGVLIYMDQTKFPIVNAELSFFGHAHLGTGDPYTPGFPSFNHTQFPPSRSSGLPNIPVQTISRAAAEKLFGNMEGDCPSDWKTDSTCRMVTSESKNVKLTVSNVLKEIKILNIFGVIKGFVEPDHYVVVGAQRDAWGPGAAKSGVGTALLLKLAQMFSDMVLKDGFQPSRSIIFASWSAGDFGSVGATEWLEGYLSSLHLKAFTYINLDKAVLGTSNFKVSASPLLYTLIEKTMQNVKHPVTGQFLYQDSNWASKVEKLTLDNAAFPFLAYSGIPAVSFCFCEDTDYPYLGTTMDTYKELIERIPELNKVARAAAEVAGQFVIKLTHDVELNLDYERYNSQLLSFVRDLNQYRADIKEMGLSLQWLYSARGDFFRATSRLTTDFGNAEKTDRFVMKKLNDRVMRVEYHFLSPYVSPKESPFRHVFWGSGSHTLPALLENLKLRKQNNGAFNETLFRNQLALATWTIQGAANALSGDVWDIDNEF
Assay: Carterra LSA SPR array, IgG captured on anti-IgG lawn, hTfR1 as analyte, 25 C, 1:1 Langmuir fit
Listed here are binders together with their documented log10(Kd).
Endpoint Name: log10(Kd) (log10 of the value in nM)

Binder	Numeric Value
9-K23 (antibody, V domains shown, Tested as a mouse monoclonal IgG) VH: QVTLKESGPGMLQPSQTLSLTCSFSGFSLNTYDVGVGWIRQPSGKGLEWLANIWWNDDKYYNSALKSRLTISKDTSNNQVFLKISSVDTADTATYYCTLYSYDGGFAYWGQGTLVTVSA VL: QIVLTQSPAIMSASLGERVTMTCTASSSVSSSYLHWYQQKPGSSPKLWIYSTSNLASGVPARFSGSGSGTSYSLTISSMEAEDAATYYCHQYHRSPYTFGGGTKLEIK	-0.40
Anti-TfR antibody 15G11 (antibody, V domains shown, Known control antibody; It was captured as an IgG on the Carterra chip; also called ctrl-15G11; 15G11 (control)) VH: QVQLQQPGAELVKPGASVKLSCKASGYTFTSYWMHWVKQRPGQGLEWIGEINPTNGRTNYIEKFKSKATLTVDKSSSTAYMQLSSLTSEDSAVYYCARGTRAYHYWGQGTSVTVSS VL: DIQMTQSPASLSVSVGETVTITCRASDNLYSNLAWYQQKQGKSPQLLVYDATNLADGVPSRFSGSGSGTQYSLKINSLQSEDFGTYYCQHFWGTPLTFGAGTKLELK	-0.55
8-K6 (antibody, V domains shown, Tested as a mouse monoclonal IgG; also called 8-K06) VH: QVHLQQPGAELVKPGASVKMSCKASGYTFTSYWITWVKQRPGQGLEWIGDIFPNSGRTNYDEKFKSKATLTVDTSSSTAYMQLSSLTSEDSAVYFCAREGNFGSLDYWGQGTTLTVSS VL: QIVLTQSPAIMSASPGEKVTMTCSANSNLNYMNWYHQKSGTSPKRWIYDTSKLASGVPARFSASGSGTSYSLTISSMEAEDAATYYCQQWSRNPLTFGAGTRLELK	-1.16
3-E5 (antibody, V domains shown, Tested as a mouse monoclonal IgG; also called 3-E05) VH: EIQMKQSGAELVKPGASVKISCKASGYSFTGYNMNWVKQSHGKSLEWIGNINPYYGSTGYNQKFKGKATLTVDKSSSTAYMQLNSLTSEDSAVYYCARGDYGYDEGTWFAYWGQGTLVTVSA VL: DIVMSQSPSSLAVSAGEKVTMSCKSSQSLLNSRTRKNYLAWYQQKPEQSPKLLIYWASTRESGVPDRFTGSGSGTDFTLTISSVQAEDLAVYYCKQSYNLPFTFGSGTKLEIK	-0.34
9-C4 (antibody, V domains shown, Tested as a mouse monoclonal IgG; also called 9-C04) VH: EVQLMESGGDLVKPGGSLKLSCAASGFTFSSYGLSWVRQTPDKRLEWVATITSGGSYTYYPDSVKGRFTISRDNARNTLYLQMFSLKSEDTAMYYCALWSLDYWGQGTTLTVSS VL: QIVLTQSPAIMSASPGEKVTMTCSANSSLSYMHWYQQKPGTSPKRWIYDTSELASGVPARFSGSGSGTSYSLTISSMEAEDAATYYCHQRRSYPWTFGGGTKLEIK	1.15
